tested target: human recombinant PDE9 protein (Homo sapiens, UniProt O76083)
Construct: His-tag (inferred from the Ni column purification; a myc His-tag vector is named only for the HEK293 expression check)
Sequence (O76083 whole entry): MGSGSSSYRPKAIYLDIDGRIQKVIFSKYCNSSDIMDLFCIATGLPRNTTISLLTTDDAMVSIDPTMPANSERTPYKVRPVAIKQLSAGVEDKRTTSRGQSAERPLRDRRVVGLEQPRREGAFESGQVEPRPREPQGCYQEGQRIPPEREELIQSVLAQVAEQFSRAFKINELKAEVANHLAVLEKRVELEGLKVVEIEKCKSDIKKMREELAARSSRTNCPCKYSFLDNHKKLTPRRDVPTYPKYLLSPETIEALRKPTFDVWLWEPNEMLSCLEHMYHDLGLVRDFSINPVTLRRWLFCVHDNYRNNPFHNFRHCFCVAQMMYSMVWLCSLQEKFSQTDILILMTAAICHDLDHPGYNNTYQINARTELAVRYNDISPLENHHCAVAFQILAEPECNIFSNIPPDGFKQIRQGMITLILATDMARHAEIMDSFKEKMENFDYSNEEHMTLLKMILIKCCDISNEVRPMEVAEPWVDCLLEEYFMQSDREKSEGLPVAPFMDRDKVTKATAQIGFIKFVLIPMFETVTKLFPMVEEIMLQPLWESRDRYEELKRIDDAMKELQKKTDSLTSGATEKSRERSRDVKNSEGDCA
experimental details: PDE9 inhibitory activity test (measurement of PDE9 inhibitory action, [3H]-cGMP)
condition context: PDE9 IC50, human recombinant PDE9, 30° C., 10 min
Hi there, I'd appreciate the recorded pIC50 for every entry that follows.
One number for each entry, as −log10 of the molar value.

- compound: "COc1ncc(C)c(-c2ccc3c(c2)[nH]c(=O)c2cnn(C4CCOCC4)c23)c1C [Example 15]"
  tested target: "human recombinant PDE9 protein (Homo sapiens, UniProt O76083)"
  pIC50: 8.05
- compound: "CCc1c(OC)ncc(C)c1-c1ccc2c(c1)[nH]c(=O)c1cnn([C@H]3CCOC3)c12 [Example 56]"
  tested target: "human recombinant PDE9 protein (Homo sapiens, UniProt O76083)"
  pIC50: 8.00

For every record below, what is its pIC50?
1. COc1nc(C)cc(C)c1-c1ccc2c(c1)[nH]c(=O)c1cnn(C3CCOC3)c12 (single isomer, unassigned; (-)) [28 (−)]
2. COCc1cc(C)c(-c2ccc3c(c2)[nH]c(=O)c2cnn(C4CCOCC4)c23)c(C)c1 [Example 7]

Reply:
1: 8.08; 2: 8.04
